Where do these numbers come from? They come from PubChem BioAssay (NCI).

# System: NCI-H226 lung
# Method: NCI-60 one-dose screen, 48 h (100 = growth as untreated, 0 = no growth, -100 = all killed)
# Condition Set: 10 µM unless noted
The panel holds about 83,000 compounds, 20% with a hit somewhere; the sample as a whole holds those more often.
Mark 1 (yes) for growth under 90%, 0 (no) if at or over.

{"Smi": "N#C/C(=N\\Nc1ccc(F)cc1)C(=O)Nc1cc(-c2ccccc2)nn1-c1ccccc1", "Class Assignment": "1 (yes)"}
{"Smi": "O=C1Nc2ccc(F)cc2/C1=C\\C(=O)c1ccc(NS(=O)(=O)c2ccccc2)cc1", "Class Assignment": "0 (no)"}
{"Smi": "COc1ccc([C@H]2C(=O)N(c3cc(OC)c(OC)c(OC)c3)[C@@H]2c2ccc(OC)c(O)c2)cc1", "Class Assignment": "1 (yes)"}
{"Smi": "O=S(=O)(NCCCNc1nccc(-c2[nH]c(-c3ccccc3)nc2-c2ccc(F)c(O)c2)n1)c1ccccc1", "Class Assignment": "0 (no)"}
{"Smi": "O=[N+]([O-])c1ccc(NC(=S)NNC(=S)Nc2ccc(Br)cc2)cc1", "Class Assignment": "0 (no)"}
{"Smi": "O=C(CSc1nnc(-c2ccc(Cl)cc2)n1-c1ccccc1)Nc1cccc(F)c1", "Class Assignment": "1 (yes)"}
{"Smi": "C[C@H]1OCC2(CCN(c3cnc(C(=O)Nc4cc(F)cc5cccnc45)cn3)CC2)[C@H]1N", "Class Assignment": "1 (yes)"}
{"Smi": "CCc1cc(OC(=O)N2CCN(CCC(C)(COC(C)(C)C)COC(C)(C)C)CC2)ccc1Nc1cc(-c2ccc(-n3cccn3)cc2)[nH]n1", "Class Assignment": "1 (yes)"}
{"Smi": "CN1CCN(c2ccc(Nc3nc(NCCNS(=O)(=O)c4ccccc4)c4sccc4n3)cc2)CC1", "Class Assignment": "0 (no)"}

---

# Tested on: NCI-H23 lung
# Method: NCI-60 one-dose screen, 48 h (100 = growth as untreated, 0 = no growth, -100 = all killed)
# Condition Set: 10 µM unless noted
# Procedure: Growth inhibition of the NCI-H23 human Non-Small Cell Lung tumor cell line is measured as a screen for anti-cancer activity. Cells are grown in 96 well plates and exposed to the test compound for 48 hours. Compounds are tested at a single concentration, which is 10^-5 M for most compounds. The reported endpoint is percent growth (GI% or GIPRCNT), where numbers from 0 - 100% represent growth inhibition, and numbers from -100% - 0 represent cell death. […]
The panel holds about 83,000 compounds, 20% with a hit somewhere; the sample as a whole holds those more often.
growth values, listed per item

{"Compound": "O=C(CN1CCN(c2cc(=O)[nH]c3ccc(F)cc23)CC1)N(c1ccccc1)c1ccccc1", "Output Unit": "%", "growth": 99.1}
{"Compound": "COc1ccc(NC2=C(Br)C(=O)C(C)=C(C)C2=O)cc1OC", "Output Unit": "%", "growth": 89.8}
{"Compound": "O=C(CCCCCCNC(=O)C(O)(O)C(F)(F)F)Nc1ccc(-c2ccccc2)cc1", "Output Unit": "%", "growth": 9.87}
{"Compound": "CC(C)C(/C=C/c1[nH]ncc1-c1cc(Cl)ccc1O)N1CCOCC1 (stereo not given)", "Output Unit": "%", "growth": 96.7}
{"Compound": "Cc1ccc2c(n1)C(=O)C(Cl)=C(Nc1cccc(C(=O)OC(C)(C)C)c1)C2=O", "Output Unit": "%", "growth": 73.7}

---

# System: BT-549 breast
# Method: NCI-60 one-dose screen, 48 h
# Condition Set: 10 µM unless noted
About 83,000 compounds went through this panel and 20% of them were active in at least one assay; those are over-represented in the sample as a whole. Calls of active or inactive are those of the source. The calls were made as follows: active = growth percent below 10; inactive = the rest.
Labels: active, inactive

{"Compound": "COc1ccc2c(c1)c(/C=N/Nc1ccnc3cc(Cl)ccc13)cn2C", "Test System": "BT-549 breast", "Class Assignment": "active"}
{"Compound": "CCN(CC)c1ccc(/C=N/NC(=O)c2ccc(S(N)(=O)=O)cc2)cc1", "Test System": "BT-549 breast", "Class Assignment": "inactive"}
{"Compound": "Fc1ccc(-c2cn3c(-c4c[nH]c5ccc(Br)cc45)csc3n2)cc1", "Test System": "BT-549 breast", "Class Assignment": "inactive"}
{"Compound": "Cc1ccc(/C=N/Nc2nc(Nc3ccccc3)nc(Nc3ccc(S(N)(=O)=O)cc3)n2)cc1", "Test System": "BT-549 breast", "Class Assignment": "inactive"}
{"Compound": "CCCCCCNC(=O)Oc1ccc(/C(=C(/C)c2ccc(Cl)cc2)c2ccc(OCCN3CCCCCC3)cc2)cc1", "Test System": "BT-549 breast", "Class Assignment": "inactive"}
{"Compound": "COc1ccc(C2CC(c3cccc(OCCCCOc4cccc(C5=NOC(c6ccc(OC)cc6)C5)c4)c3)=NO2)cc1 (stereo not given)", "Test System": "BT-549 breast", "Class Assignment": "inactive"}
{"Compound": "CC1=C(C)C(=O)C(Nc2ccc(C)cc2)=C(Br)C1=O", "Test System": "BT-549 breast", "Class Assignment": "inactive"}
{"Compound": "COc1ccc(-c2c(C(N)=O)c(N)n(Cc3nc4ccccc4[nH]3)c(=O)c2C#N)c(OC)c1", "Test System": "BT-549 breast", "Class Assignment": "inactive"}
{"Compound": "CC(C)(C)c1cc(NC(=O)Nc2ccc(-c3cn4c5c(sc4n3)CCc3cn(CCCN4CCCCC4)cc3-5)cc2)no1", "Test System": "BT-549 breast", "Class Assignment": "inactive"}
{"Compound": "COC(=O)c1cccc(NC2=CC(=O)C(C)=C(C)C2=O)c1", "Test System": "BT-549 breast", "Class Assignment": "inactive"}
{"Compound": "COc1ccc(C2C(C#N)=C(/N=C/c3ccc(Cl)cc3)Oc3c2sc2c(C)cccc32)cc1 (stereo not given)", "Test System": "BT-549 breast", "Class Assignment": "inactive"}
{"Compound": "CC1=C(C)C(=O)C(Nc2cccc(C(=O)OC(C)(C)C)c2)=C(Cl)C1=O", "Test System": "BT-549 breast", "Class Assignment": "inactive"}
{"Compound": "CS(=O)(=O)c1ccc(/C(=N/N=C(N)N)c2ccc(Cl)cc2)cc1", "Test System": "BT-549 breast", "Class Assignment": "inactive"}
{"Compound": "CC(=O)Nc1cc(N2CCOCC2)c2nc(NC(=O)c3[nH]c(C)c(Cl)c3Cl)sc2c1", "Test System": "BT-549 breast", "Class Assignment": "inactive"}
{"Compound": "O=C(CCCCCCNC(=O)C(O)(O)C(F)(F)F)Nc1ccc(Cl)cc1", "Test System": "BT-549 breast", "Class Assignment": "inactive"}
{"Compound": "COc1cc(C(=O)c2cc(C(C)=O)c3c(C)cccn23)cc(OC)c1OC", "Test System": "BT-549 breast", "Class Assignment": "inactive"}
{"Compound": "Cn1cc(-c2nnc(N)nc2-c2c[nH]c3ccc(Br)cc23)c2cc(Br)ccc21", "Test System": "BT-549 breast", "Class Assignment": "inactive"}
{"Compound": "O=C(Nc1cccc(Cl)c1)Nc1nc2cc([N+](=O)[O-])ccc2o1", "Test System": "BT-549 breast", "Class Assignment": "inactive"}
{"Compound": "CC(Nc1ncnc2ccc(-c3cnc(N)nc3)cc12)c1ccccc1 (stereo not given)", "Test System": "BT-549 breast", "Class Assignment": "inactive"}
{"Compound": "Cc1cc(C)cc(NC2=C(Cl)C(=O)c3nc(C)ccc3C2=O)c1", "Test System": "BT-549 breast", "Class Assignment": "inactive"}

---

# Test system: NCI-H460 lung
# Method: NCI-60 one-dose screen, 48 h
# Condition Set: 10 µM unless noted
This is part of a sample that, as a whole, favours compounds with a hit. Of some 83,000 tested, about 20% had one in any assay. Activity calls are given as the source filed them. How the source made its calls: active means growth percent below 10; inactive means the rest.
Possible outcomes: active, inactive

{"Compound": "CCN(CC)c1ccc(/C=N/NC(=O)c2ccc(NS(C)(=O)=O)cc2)c(O)c1", "Test System": "NCI-H460 lung", "Class Assignment": "active"}
{"Compound": "O=C(N/N=C/c1cc2ccccc2nc1Cl)c1cc(-c2nc3ccccc3[nH]2)nc2ccccc12", "Test System": "NCI-H460 lung", "Class Assignment": "inactive"}
{"Compound": "N#Cc1c(-c2cccs2)cc(-c2cnccn2)nc1SCC(=O)N/N=C/c1ccc(Cl)cc1", "Test System": "NCI-H460 lung", "Class Assignment": "inactive"}
{"Compound": "O=C(/C=C/c1ccc(F)cc1)Nc1cccc2cccnc12", "Test System": "NCI-H460 lung", "Class Assignment": "inactive"}
{"Compound": "COC(=O)CNC(=O)c1cccc(-c2cc(=O)c3c(OC)c(OC)c(OC)cc3o2)c1", "Test System": "NCI-H460 lung", "Class Assignment": "inactive"}
{"Compound": "CC(=O)c1cc(C(=O)N2c3ccccc3Sc3ccccc32)n2c1ccc1ccccc12", "Test System": "NCI-H460 lung", "Class Assignment": "inactive"}
{"Compound": "CC1CCN(CC(=O)Nn2c(COc3ccccc3)nc3ccccc3c2=O)CC1", "Test System": "NCI-H460 lung", "Class Assignment": "inactive"}
{"Compound": "Cn1c(SCC(=O)c2ccco2)nc2ccccc2c1=O", "Test System": "NCI-H460 lung", "Class Assignment": "inactive"}
{"Compound": "CCc1cc2c(cc1Cl)nc1c(=O)[nH]c(=O)nc-1n2CCOCC(C)(C)C", "Test System": "NCI-H460 lung", "Class Assignment": "inactive"}
{"Compound": "CN1CCC[C@]2(C)[C@H]3CC[C@@H]4[C@@H]5[C@H]6OC[C@@]5(CCC6(C)C)CC[C@@]4(C)[C@]3(C)CC[C@H]2C1(C)C", "Test System": "NCI-H460 lung", "Class Assignment": "active"}
{"Compound": "CN1CCN(c2ccc(Nc3nc(NCCCNS(=O)(=O)c4ccc(C(F)(F)F)cc4)c4sccc4n3)cc2)CC1", "Test System": "NCI-H460 lung", "Class Assignment": "active"}
{"Compound": "C#CCOc1ccc(-c2csc(NC(=O)C=C)n2)cc1NS(=O)(=O)c1cccc2c(N(C)C)cccc12", "Test System": "NCI-H460 lung", "Class Assignment": "inactive"}
{"Compound": "C1=CC(c2nn3c(-c4ccccc4)nnc3s2)=Cc2ccccc2O1", "Test System": "NCI-H460 lung", "Class Assignment": "inactive"}
{"Compound": "CC(C)NC(=O)c1cc(-c2ccc(NC(=O)Nc3ccc(F)c(C(F)(F)F)c3)cc2)nc2cccnc12", "Test System": "NCI-H460 lung", "Class Assignment": "inactive"}
{"Compound": "Cc1csc(/N=C(N)/N=C(\\N)c2cccs2)n1", "Test System": "NCI-H460 lung", "Class Assignment": "inactive"}
{"Compound": "C#CCOc1ccccc1C(OC(=O)c1ccccc1)C(=O)NC(C)(C)C(C)(C)C (stereo not given)", "Test System": "NCI-H460 lung", "Class Assignment": "inactive"}
{"Compound": "CCc1cc(O)ccc1Nc1cc(-c2ccc(-n3cccn3)cc2)[nH]n1", "Test System": "NCI-H460 lung", "Class Assignment": "inactive"}
{"Compound": "COc1ccc(-c2c3c(cn2Cc2cccc(OC)c2)-c2oncc2CCC3)cc1", "Test System": "NCI-H460 lung", "Class Assignment": "inactive"}
{"Compound": "O=C(NNc1nc2cc(F)cc(F)c2n2cccc12)c1cccnn1", "Test System": "NCI-H460 lung", "Class Assignment": "active"}
{"Compound": "CCN(CC)S(=O)(=O)c1ccc(-c2nc(C(Cl)Cl)nc3cc(C)nn23)cc1", "Test System": "NCI-H460 lung", "Class Assignment": "active"}
